PROTOCOL_SUMMARY: Toxicity liver stage against HepG2, at 10uM
Type: cell-based
Design: test concentration 10 uM, cell line HepG2-A16-CD81EGFP
TEST_CONDITIONS: human, HepG2-A16-CD81EGFP cells; read-out: INHIBITION
QUANTITY_NAME: cytotoxicity at 10 µM (%)
Please give a number only; it is taken to be in %.

Req: May I ask what cytotoxicity at 10 µM has been recorded for CC1(C)CNC(=O)CN(C(=O)CCc2ccccc2)C1 ?
Resp: -8.57

---

PROTOCOL_SUMMARY: Toxicity liver stage against HepG2, at 10uM
Format: cell-based
Design: test concentration 10 uM, cell line HepG2-A16-CD81EGFP
TEST_CONDITIONS: human, HepG2-A16-CD81EGFP cells; read-out: INHIBITION
QUANTITY_NAME: cytotoxicity at 10 µM (%)
Please give a number only; it is taken to be in %.

Look over these answered cases.
Req: Please look up its cytotoxicity at 10 µM: CSc1ccc(-c2noc(CN(CC(C)C)CC(C)C)n2)cc1
Resp: -3.7

Req: Consider next the molecule CC(C)(C)C(=O)N1C[C@@H](F)[C@@H](OCc2nc3ccccc3o2)C1 in the same way.
Resp: 3.33

Req: // next record CCCOc1cc(CNC(=O)Nc2cccnc2N2CCCC2)ccn1
Resp: -2.06

Req: Also check CC(C)c1nn(C)c(Cl)c1CNCc1cccnc1N(C)C
Resp: 10.7

Req: Next: CO[C@@H]1CC[C@H]2[C@H]1OCCN2S(=O)(=O)C1CC1
Resp: 2.6

Req: What about this molecule? Cc1nc(CN2CC3(CCN(c4nccs4)C3)CC2=O)cs1 (stereo unspecified)
Resp: -0.646

Req: What do you have for CC(C)S(=O)(=O)NCC1CCCN(C(=O)c2ccc3c(c2)OCCO3)C1 (stereo unspecified) ?
Resp: -35.2

Req: What do you get for O=C(CC[C@@H]1CCCN2CCCC[C@H]12)N1CCC(c2nnc[nH]2)CC1 ?
Resp: 2.61

Req: Try this molecule too: COCCN(CCOC)Cc1nc2c(cnn2C)c(=O)[nH]1
Resp: -9.73

Req: Let us now turn to COc1cc(C)c(S(=O)(=O)CC(=O)N(C)C(C)C)cc1OC
Resp: 4.02

# evaluate next
Req: Report cytotoxicity at 10 µM for O=c1c2c[nH]c(N3CCOCC3)nc-2cn1Cc1cccc(F)c1 please.
Resp: -2.72

---

Below: a set of entries, each annotated with reported cytotoxicity at 10 µM.
PROTOCOL_SUMMARY: Toxicity liver stage against HepG2, at 10uM
Assay type: cell-based
Parameters: test concentration 10 uM, cell line HepG2-A16-CD81EGFP
TEST_CONDITIONS: human, HepG2-A16-CD81EGFP cells; read-out: INHIBITION
Give just the numeric value; % need not be written.

Req: I would be grateful if you could share the reported cytotoxicity at 10 µM for Cc1cc(C(=O)N2CCNC(c3ccccc3)C2)c2ccc(F)cc2n1 (configuration not stated) .
Resp: 3.09

***
Req: # cytotoxicity at 10 µM lookup, item CC(C)c1nccn1CCCNC(=O)c1ccc(-c2ccncc2)nc1
Resp: -9.77

Req: Please give the result for COc1c(CNCc2ccc3c(c2)OCO3)c(C(C)C)nn1C too.
Resp: 0.745

Req: // repeat for CCN1CCC2(CC1)CN(CCO)c1ccccc12 and report
Resp: -0.173

Req: Next: CN(C)C(=O)C1OC2(CCN(c3ncc(F)cn3)CC2)c2ccccc21 (configuration not stated)
Resp: 6.27

Req: What do you have for O=C([C@@H]1CSCN1)N1CCC2(CC1)CNCc1ccccc12 ?
Resp: -2.08
